The following molecules are listed with their measured Pre-emerge herbicidal activity, phytotoxicity rating DIGSA values.
Tested on: large crabgrass (Digitaria sanguinalis, DIGSA)
Assay Info: Pre-emerge test, greenhouse herbicide activity screening
Type: in vivo
Condition: 63 g ai/ha; rating scale 0-100, 14 days after application
Measure: Pre-emerge herbicidal activity, phytotoxicity rating DIGSA

Molecule | Reported
COc1c(Cl)cc(F)c(-n2c(=O)cc(C(F)(F)F)n(C)c2=O)c1CC(C)(Cl)C(=O)OCC(F)(F)C(F)F (stereo not drawn) [14-45] | 30
CCCCCCOC(=O)C(C)(Cl)Cc1c(OC)c(Cl)cc(F)c1-n1c(=O)cc(C(F)(F)F)n(C)c1=O (stereo not drawn) [14-38] | 0
C#CCOC(=O)C(Cl)Cc1c(OC)c(Cl)cc(F)c1-n1c(=O)cc(C(F)(F)F)n(C)c1=O (single isomer, unassigned) [14-19] | 0
COc1c(Cl)cc(F)c(-n2c(=O)cc(C(F)(F)F)n(C)c2=O)c1CC(Cl)C(=O)OCC(Br)CBr (single isomer, unassigned) [14-31] | 0
CCOC(=O)C(Cl)Cc1c(OC)c(Cl)cc(F)c1-n1c(=O)cc(C(F)(F)F)n(C)c1=O (single isomer, unassigned) [Compound 14-4] | 20
COc1c(Cl)cc(F)c(-n2c(=O)cc(C(F)(F)F)n(C)c2=O)c1CC(Cl)C(=O)OCC(Br)CBr (single isomer, unassigned) [14-30] | 0

====

The following compounds are listed with their measured phytotoxicity rating CORN (crop damage) values.
Test system: field corn (Zea mays L., var. Dekalb 535, CORN)
Assay Info: Pre-emerge test, crop safety
Type: in vivo
Condition: pre-emerge, 63 g ai/ha, 14 days after application, scale 0-100
Measure: phytotoxicity rating CORN (crop damage)

Compound | Reported
Cn1c(C(F)(F)F)cc(=O)n(-c2ccccc2NC(=O)c2ccc3ccccc3c2)c1=O [2-142] | 0
COc1c(Cl)cc(F)c(-n2c(=O)cc(C(F)(F)F)n(C)c2=O)c1NC(=O)CCc1ccccc1C [2-129] | 50
C=Cc1ccc(C(=O)N(C(=O)c2ccc(C=C)cc2)c2c(OC)c(Br)cc(F)c2-n2c(=O)cc(C(F)(F)F)n(C)c2=O)cc1 [2-183] | 0
COc1c(Cl)cc(F)c(-n2c(=O)cc(C(F)(F)F)n(C)c2=O)c1NC(=O)CSC(C)C [2-173] | 0
COc1c(Br)cc(F)c(-n2c(=O)cc(C(F)(F)F)n(C)c2=O)c1NC(=O)C=Cc1ccccc1 [2-175] | 0
C=Cc1ccc(C(=O)Nc2c(OC)c(Br)cc(F)c2-n2c(=O)cc(C(F)(F)F)n(C)c2=O)cc1 [2-182] | 0
Cn1c(C(F)(F)F)cc(=O)n(-c2c(F)cc(OC(F)F)cc2NC(=O)c2ccc3ccccc3c2)c1=O [2-148] | 0
N#CCOc1c(Cl)cc(F)c(-n2c(=O)cc(C(F)(F)F)n(N)c2=O)c1NC(=O)c1ccc2ccccc2c1 [2-188] | 0
CCSCC(=O)Nc1c(OC)c(Cl)cc(F)c1-n1c(=O)cc(C(F)(F)F)n(C)c1=O [2-172] | 0
CCOC(=O)CSCC(=O)Nc1c(OC)c(Cl)cc(F)c1-n1c(=O)cc(C(F)(F)F)n(C)c1=O [2-170] | 10
CCOC(=O)C(C)SCC(=O)Nc1c(OC)c(Cl)cc(F)c1-n1c(=O)cc(C(F)(F)F)n(C)c1=O (stereo not drawn) [2-171] | 0
COc1c(Cl)cc(F)c(-n2c(=O)cc(C(F)(F)F)n(C)c2=O)c1NC(=O)c1ccc2cccc(F)c2c1 [2-161] | 0

====

Tested on: upland rice (Oryza sp., var. Tebonnet, RICE)
Assay Info: Post-emerge test, crop safety
Assay type: in vivo
Condition: 63 g ai/ha; phytotoxicity rating 0-100 (0 no damage, 100 complete death), 14 days after application
Measure: Post-emerge Herbicidal Activity RICE (crop damage)

Compound | Reported
C=CC(=O)N(C(=O)C=C)c1c(OC)c(Cl)cc(F)c1-n1c(=O)cc(C(F)(F)F)n(C)c1=O [2-4] | 0
COc1c(Cl)cc(F)c(-n2c(=O)cc(C(F)(F)F)n(C)c2=O)c1NC(=O)c1ccc(C)c(C)c1 [2-32] | 30
COC(=O)C=CCOc1c(Cl)cc(F)c(-n2c(=O)cc(C(F)(F)F)n(C)c2=O)c1N [Compound 1-20] | 20
COc1c(Cl)cc(F)c(-n2c(=O)cc(C(F)(F)F)n(C)c2=O)c1N(C(=O)C=C(C)C)C(=O)C=C(C)C [2-8] | 0
COc1c(Cl)cc(F)c(-n2c(=O)cc(C(F)(F)F)n(C)c2=O)c1N1CCCC1 [Compound 1-32] | 0
COc1c(Cl)cc(F)c(-n2c(=O)cc(C(F)(F)F)n(C)c2=O)c1N(C)C [Compound 1-11] | 0
COc1c(Cl)cc(F)c(-n2c(=O)cc(C(F)(F)F)n(C)c2=O)c1NC(=O)C=C(C)C [2-7] | 40
Cn1c(C(F)(F)F)cc(=O)n(-c2c(F)cc(Cl)c(OC3CCCC3)c2N)c1=O [Compound 1-21] | 10

====

Tested on: velvetleaf (Abutilon theophrasti, ABUTH)
Assay Info: Pre-emerge test, greenhouse herbicide activity screening
Type: in vivo
Condition: pre-emerge, 63 g ai/ha, 14 days after application, scale 0-100
The following compounds are listed with their measured phytotoxicity rating ABUTH values.

Compound | phytotoxicity rating ABUTH
Cn1c(C(F)(F)F)cc(=O)n(-c2ccc(C#N)cc2NC(=O)c2ccc3ccccc3c2)c1=O | 100
COc1c(Cl)cc(F)c(-n2c(=O)cc(C(F)(F)F)n(N)c2=O)c1NC(=O)c1ccc2ccccc2c1 | 100
COc1c(Cl)cc(F)c(-n2c(=O)cc(C(F)(F)F)n(C)c2=O)c1NC(=O)COc1ccc(F)cc1 | 100
COc1c(C#N)cc(F)c(-n2c(=O)cc(C(F)(F)F)n(C)c2=O)c1NC(=O)c1ccc2ccccc2c1 | 100
CCOC(=O)C(C)Oc1ccc(-n2c(=O)cc(C(F)(F)F)n(C)c2=O)c(NC(=O)c2ccc3ccccc3c2)c1 (centres unmarked) | 70
Cn1c(C(F)(F)F)cc(=O)n(-c2ccccc2NC(=O)c2ccc3ccccc3c2)c1=O | 0
Cn1c(C(F)(F)F)cc(=O)n(-c2ccc(C(F)(F)F)cc2NC(=O)c2ccc3ccccc3c2)c1=O | 99
N#CCOc1c(Cl)cc(F)c(-n2c(=O)cc(C(F)(F)F)n(N)c2=O)c1NC(=O)c1ccc2ccccc2c1 | 90

====

The following compounds are listed with their measured ABUTH phytotoxicity rating values.
Test system: velvetleaf (Abutilon theophrasti, ABUTH)
Assay Info: Post-emerge test, greenhouse herbicide activity screening
Assay type: in vivo
Condition: post-emerge, 63 g ai/ha, 14 days after application, rating scale 0-100
Measure: ABUTH phytotoxicity rating

Compound | Reported
COc1c(Br)cc(F)c(-n2c(=O)cc(C(F)(F)F)n(C)c2=O)c1N(C(=O)C=Cc1ccccc1)C(=O)C=Cc1ccccc1 [2-176] | 50
COc1c(Cl)cc(F)c(-n2c(=O)cc(C(F)(F)F)n(C)c2=O)c1NC(=O)CCc1ccccc1C | 100
COc1c(Cl)cc(F)c(-n2c(=O)cc(C(F)(F)F)n(C)c2=O)c1NC(=O)CSC(C)C | 60
COc1c(Cl)cc(F)c(-n2c(=O)cc(C(F)(F)F)n(C)c2=O)c1NC(=O)C(C#N)=Cc1ccccc1 | 100
COc1c(Cl)cc(F)c(-n2c(=O)cc(C(F)(F)F)n(C)c2=O)c1NC(=O)COc1ccc(Cl)cc1Cl | 100
Cn1c(C(F)(F)F)cc(=O)n(-c2ccc(C(F)(F)F)cc2NC(=O)c2ccc3ccccc3c2)c1=O | 100
COc1c(Cl)cc(F)c(-n2c(=O)cc(C(F)(F)F)n(C)c2=O)c1NC(=O)c1ccc2ccccc2c1OC | 95

====

The following molecules are listed with their measured Pre-emerge Herbicidal Activity ECHCG values.
Test system: barnyardgrass (Echinochloa crus-galli, ECHCG)
Assay Info: Pre-emerge test, greenhouse herbicide activity screening
Format: in vivo
Condition: 250 g ai/ha; phytotoxicity rating 0-100, 14 days after application

Input Smiles | Pre-emerge Herbicidal Activity ECHCG
COc1c(Cl)cc(F)c(-n2c(=O)cc(C(F)(F)F)n(C)c2=O)c1NC(=O)OCc1ccc2c(c1)OCO2 | 90
COc1c(Cl)cc(F)c(-n2c(=O)cc(C(F)(F)F)n(C)c2=O)c1NC(=O)OCc1ccc(OC(F)(F)F)cc1 | 40
COc1c(Cl)cc(F)c(-n2c(=O)cc(C(F)(F)F)n(C)c2=O)c1NC(=O)OCc1ccccc1[N+](=O)[O-] | 90
COc1c(Cl)cc(F)c(-n2c(=O)cc(C(F)(F)F)n(C)c2=O)c1NC(=O)N(Cc1ccccc1)c1ccccc1 | 0
COc1c(Cl)cc(F)c(-n2c(=O)cc(C(F)(F)F)n(C)c2=O)c1NC(=O)OCc1cc(C)ccc1C | 60
Cc1ccc(-n2c(=O)cc(C(F)(F)F)n(C)c2=O)c(NC(=O)c2ccc3ccccc3c2)c1 | 75
Nn1c(C(F)(F)F)cc(=O)n(-c2c(F)cc(Cl)c(O)c2NC(=O)c2ccc3ccccc3c2)c1=O | 0
CCCCCC(=O)Nc1c(OC)c(Cl)cc(F)c1-n1c(=O)cc(C(F)(F)F)n(C)c1=O | 100
COc1c(Cl)cc(F)c(-n2c(=O)cc(C(F)(F)F)n(C)c2=O)c1NC(=O)OCc1ccc2ccccc2c1 | 0
Cc1ccc(OC(=O)Nc2c(C)c(Cl)cc(F)c2-n2c(=O)cc(C(F)(F)F)n(C)c2=O)cc1C | 85
CCc1ccc(COC(=O)Nc2c(OC)c(Cl)cc(F)c2-n2c(=O)cc(C(F)(F)F)n(C)c2=O)cc1 | 30
COc1c(Cl)cc(F)c(-n2c(=O)cc(C(F)(F)F)n(C)c2=O)c1NC(=O)C1CC1 | 90
Cn1c(C(F)(F)F)cc(=O)n(-c2ccc(Cl)cc2NC(=O)Oc2ccccc2)c1=O | 0
COc1c(Cl)cc(F)c(-n2c(=O)cc(C(F)(F)F)n(C)c2=O)c1NC(=O)OCc1c(F)c(F)c(F)c(F)c1F | 70
